assayed.system: human RORγt LBD (Homo sapiens (Human), UniProt P51449)
Sequence (P51449 258-518): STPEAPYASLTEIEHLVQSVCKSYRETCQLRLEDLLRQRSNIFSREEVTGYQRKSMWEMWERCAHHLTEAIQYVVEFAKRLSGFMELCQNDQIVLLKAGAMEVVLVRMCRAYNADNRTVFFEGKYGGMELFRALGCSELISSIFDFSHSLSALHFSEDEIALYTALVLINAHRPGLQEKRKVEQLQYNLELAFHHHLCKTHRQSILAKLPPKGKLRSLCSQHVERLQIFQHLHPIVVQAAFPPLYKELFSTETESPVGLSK
test.name: RORγt reporter assay (GAL4-RORγt LBD luciferase in HEK293T cells)
Type: cell-based
condition.label: HEK-293T, read-out: RORγt reporter Assay, % inhibition @ 6 μM, HEK293T cells, 6 μM
Entries annotated with measured inhibition at 6 µM
Number in %, nothing else.

See these solved cases before continuing.
compound: CCc1nc2ccc(C(O)(c3cnnn3C)C3CN(C(C)=O)C3)cc2c(Cl)c1Cc1ccc(C(F)(F)F)cc1 (single isomer, unassigned) [Example 90B]
inhibition at 6 µM (%): 98
--
compound: CON(C)c1nc2ccc(C(O)(c3ccc(C(F)(F)F)nc3)c3cncn3C)cc2c(Cl)c1Cc1ccc(-n2cccn2)cc1 (stereo not drawn) [Example 67A]
inhibition at 6 µM (%): 115
--
compound: OC(c1ccc(F)cc1)(c1cccnc1)c1ccc2nc(Cl)c(Cc3ccc(-n4cccn4)cc3)c(Cl)c2c1 (stereo not drawn)
inhibition at 6 µM (%): 89
--
compound: CON(C)c1nc2ccc(C(O)(c3ccc(C(F)(F)F)nc3)c3cncn3C)cc2c(Cl)c1Cc1ccc(-n2cccn2)cc1 (single isomer, unassigned) [Example 67B]
inhibition at 6 µM (%): 101

# input GET /values?readout=inhibition at 6 µM&item= Cc1cc(C(O)(c2ccc(C(F)(F)F)nc2)c2cncn2C)cc2c(C#N)c(Cc3ccc(-n4cccn4)cc3)c(C#N)nc12 (single isomer, unassigned) [Example 65B]
# output 101

# input GET /values?readout=inhibition at 6 µM&item= Cn1cncc1C(O)(c1ccc(C(F)(F)F)nc1)c1ccc2nc(N3CCC3)c(Cc3ccc(-n4cccn4)cc3)c(Cl)c2c1 (single isomer, unassigned) [Example 68B]
# output 96

* * *

assayed.system: human RORγt LBD (Homo sapiens (Human), UniProt P51449)
test.name: RORγt reporter assay (GAL4-RORγt LBD luciferase in HEK293T cells)
Type: cell-based
condition.label: HEK-293T, read-out: RORγt reporter Assay, % inhibition @ 6 μM, HEK293T cells, 6 μM
measured.metric: inhibition at 6 µM (%)
Number in %, nothing else.

compound: COc1nc2ccc(C(O)(c3sc(C)nc3C)c3cnnn3C)cc2c(Cl)c1Cc1ccc(C(F)(F)F)cc1 (stereo not shown) [Example 79C]
output.unit: %
inhibition at 6 µM: 94

# input GET /values?readout=inhibition at 6 µM&item= COc1nc2ccc(C(O)(c3ccc(N(C)C)cc3)c3cncn3C)cc2c(Cl)c1Cc1ccc(-n2cccn2)cc1 (stereo not shown)
# output 85

# input GET /values?readout=inhibition at 6 µM&item= COc1nc2ccc(C(O)(c3ccc(C#N)cc3)c3cncn3C)cc2c(C#N)c1Cc1ccc(C(F)(F)F)cc1 (single isomer, unassigned) [Example 96B]
# output 97

# input GET /values?readout=inhibition at 6 µM&item= COc1nc2ccc(C(O)(c3ccc(C(F)(F)F)nc3)c3cncn3C)cc2c(Cl)c1Cc1ccc(S(C)(=O)=O)cc1 (stereo not shown)
# output 101

# input GET /values?readout=inhibition at 6 µM&item= OC(c1ccc(Cl)cc1)(c1cccnc1)c1ccc2nc(Cl)c(Cc3ccc(-n4cccn4)cc3)c(Cl)c2c1 (stereo not shown)
# output 103

# input GET /values?readout=inhibition at 6 µM&item= COc1nc2c(C)cc(C(O)(c3ccc(Cl)cc3)c3cncn3C)cc2c(Cl)c1Cc1ccc(-n2cccn2)cc1 (stereo not shown) [Example 28A]
# output 100

# input GET /values?readout=inhibition at 6 µM&item= COc1ccc(C(O)(c2ccc3nc(OC)c(Cc4ccc(-n5cccn5)cc4)c(Cl)c3c2)c2cncs2)cn1 (single isomer, unassigned) [Example 20B]
# output 100
